Please go through the items and note down their TGI.
# Test system: NCI/ADR-RES ovarian
# assayName: NCI tumour cell line growth inhibition, 48 h
Please respond with the number in µM and leave the unit unwritten.

**Query** Write down TGI measured for item COc1cccc(NC(=O)c2sc3nc4c(cc3c2N)CN(Cc2ccccc2)CC4)c1
**Result** 33.3

**Query** Write down TGI measured for item O=C(C1CCCCC1)[C@@H]1[C@]2(C(=O)NC3CCCCC32)[C@@H]2CCCN2[C@@]12C(=O)NC1CCC(Cl)CC12 (some centres undefined)
**Result** 310

**Query** Write down TGI measured for item CCCCCCCCCCCCCCCCCC(=O)OCC(COC1OC(COP(=O)(O)O)C(O)C(O)C1O)OC(=O)CCCCCCCCCCCCCCCCC (centres undefined)
**Result** 18.2

**Query** Write down TGI measured for item CCC1C(c2cc(OC)c(OC)c(OC)c2)c2cc3c(cc2OC1N1CCCC1)OCO3 (centres undefined)
**Result** 7.03

**Query** Write down TGI measured for item c1ccc2c(c1)c(NCCCCN1CCCCC1)cc1c3ccccc3c(NCCCCN3CCCCC3)cc21
**Result** 38.4

###

# Test system: HCC-2998 colon
# assayName: NCI tumour cell line growth inhibition, 48 h
quantityName: GI50

**Query** Write down GI50 measured for item CC(CN1CCN(CCOCCO)CC1)CN1c2ccccc2Sc2ccc(Cl)cc21 (configuration not stated)
**Result** 1.91 µM

**Query** Write down GI50 measured for item CC1=C(CCC(C)N(C)Cc2ccc(OCCCN3CCCC3)cc2)C(C)(C)CCC1 (configuration not stated)
**Result** 1.5 µM

**Query** Write down GI50 measured for item C[C@@H]1CC[C@H]2C(COCCOCC3=C(C(F)(F)F)O[C@@H]4O[C@@]5(C)CC[C@H]6[C@H](C)CC[C@@H]3[C@@]46OO5)=C(C(F)(F)F)O[C@@H]3O[C@@]4(C)CC[C@@H]1[C@]32OO4
**Result** > 11.9 µM

**Query** Write down GI50 measured for item Cc1c2cc[n+](CCN3CCCCC3)cc2c(C)c2c1[nH]c1ccc(O)cc12
**Result** 14.3 µM

**Query** Write down GI50 measured for item COc1ccc2cc(-c3ccoc(=O)c3-c3cc(OC)c(OC)c(OC)c3)ccc2c1
**Result** 0.0744 µM

**Query** Write down GI50 measured for item O=C(C1CCCCC1)[C@@H]1[C@]2(C(=O)NC3CCCCC32)[C@@H]2CCCN2[C@@]12C(=O)NC1CCC(Cl)CC12 (some centres not stated)
**Result** 135 µM

**Query** Write down GI50 measured for item O=C(/C(=C/c1ccccc1)CN1CCCCC1)c1ccccc1
**Result** 1.68 µM

**Query** Write down GI50 measured for item CC(C)(C)c1n[nH]c(=S)n(/N=C/c2ccc(F)c(Oc3ccccc3)c2)c1=O
**Result** 33.2 µM

**Query** Write down GI50 measured for item N#Cc1c(N/N=C/c2c(Cl)cccc2Cl)nc(N)nc1N1CCOCC1
**Result** 3.96 µM

**Query** Write down GI50 measured for item O=c1[nH]c2ccccc2nc1-c1c[nH]c2ccccc12
**Result** > 100 µM

**Query** Write down GI50 measured for item Cc1ccc(NC(=O)/C=C/c2ccccc2)c(C(N)=O)c1
**Result** 5.38 µM

**Query** Write down GI50 measured for item COc1cc2nc(N3CCCC3)nc(NCC3CCCCC3)c2cc1OC
**Result** 0.444 µM
